system: P. aeruginosa ATCC 27853; experiment: Neutropenic mouse bloodstream infection model; assay type: in vivo; conditions: single IV dose 4 mg/kg, 4 h
Residues, ends and D or L forms follow the SMILES beside them.
Values of Log10 CFU/mL blood at 4 h, Mean strictly less than 5 Log10 CFU/mL blood map to Yes, and values of at least 5 Log10 CFU/mL blood map to No.

{"compound": "CC[C@@H]1NC(=O)[C@@H](CC(C)C)NC(=O)[C@H](CCN)NC(=O)[C@@H](NC(=O)[C@H](CN)NC(=O)[C@@H](NC(=O)[C@H](CCN)NC(=O)c2c(Cl)cccc2Cl)[C@@H](C)O)CCNC(=O)[C@H]([C@@H](C)O)NC(=O)[C@H](CCN)NC(=O)[C@H](CCN)NC1=O [Lipopeptide F360] (HELM PEPTIDE1{[O=C(c1c(Cl)cccc1Cl)[*:2]].[Dab].T.[NC[C@H](N[*:1])C(=O)[*:2]].[Dab].[Dab].[dL].[Abu].[Dab].[Dab].T}$PEPTIDE1,PEPTIDE1,5:R3-11:R2$$$V2.0)", "qualitative_label": "No"}
{"compound": "CC[C@@H]1NC(=O)[C@@H](CC(C)C)NC(=O)[C@H](CCN)NC(=O)[C@@H](NC(=O)[C@H](CN)NC(=O)[C@@H](NC(=O)[C@H](CCN)NC(=O)c2ccc(Cl)cc2F)[C@@H](C)O)CCNC(=O)[C@H]([C@@H](C)O)NC(=O)[C@H](CCN)NC(=O)[C@H](CCN)NC1=O [Lipopeptide F448] (HELM PEPTIDE1{[O=C(c1ccc(Cl)cc1F)[*:2]].[Dab].T.[NC[C@H](N[*:1])C(=O)[*:2]].[Dab].[Dab].[dL].[Abu].[Dab].[Dab].T}$PEPTIDE1,PEPTIDE1,5:R3-11:R2$$$V2.0)", "qualitative_label": "Yes"}

Exercise: Given the entry CCCCCCCC(=O)N[C@@H](CCN)C(=O)N[C@H](C(=O)N[C@H](CCN)C(=O)N[C@H]1CCNC(=O)[C@H]([C@@H](C)O)NC(=O)[C@H](CCN)NC(=O)[C@H](CCN)NC(=O)[C@H]([C@@H](C)O)NC(=O)[C@@H](CC(C)C)NC(=O)[C@H](CCN)NC1=O)[C@@H](C)O [Lipopeptide F085] (HELM PEPTIDE1{[CCCCCCCC(=O)[*:2]].[Dab].T.[NCC[C@@H](N[*:1])C(=O)[*:2]].[Dab].[Dab].[dL].T.[Dab].[Dab].T}$PEPTIDE1,PEPTIDE1,5:R3-11:R2$$$V2.0) , would its reported Log10 CFU/mL blood at 4 h, Mean be below 5 Log10 CFU/mL blood?
Solution: Yes

Exercise: Given the entry CCCCCCCC(=O)N[C@@H](CCN)C(=O)N[C@H](C(=O)N[C@@H](CN)C(=O)N[C@H]1CCNC(=O)[C@H]([C@@H](C)O)NC(=O)[C@H](CCN)NC(=O)[C@H](CCN)NC(=O)[C@H](C)NC(=O)[C@@H](CC(C)C)NC(=O)[C@H](CCN)NC1=O)[C@@H](C)O [Lipopeptide F271] (HELM PEPTIDE1{[CCCCCCCC(=O)[*:2]].[Dab].T.[NC[C@H](N[*:1])C(=O)[*:2]].[Dab].[Dab].[dL].A.[Dab].[Dab].T}$PEPTIDE1,PEPTIDE1,5:R3-11:R2$$$V2.0) , would its reported Log10 CFU/mL blood at 4 h, Mean be below 5 Log10 CFU/mL blood?
Solution: No

Exercise: Given the entry CC[C@@H]1NC(=O)[C@@H](CC(C)C)NC(=O)[C@H](CCN)NC(=O)[C@@H](NC(=O)[C@H](CN)NC(=O)[C@@H](NC(=O)[C@H](CCN)NC(=O)c2ccc(F)cc2Cl)[C@@H](C)O)CCNC(=O)[C@H]([C@@H](C)O)NC(=O)[C@H](CCN)NC(=O)[C@H](CCN)NC1=O [Lipopeptide F449] (HELM PEPTIDE1{[O=C(c1ccc(F)cc1Cl)[*:2]].[Dab].T.[NC[C@H](N[*:1])C(=O)[*:2]].[Dab].[Dab].[dL].[Abu].[Dab].[Dab].T}$PEPTIDE1,PEPTIDE1,5:R3-11:R2$$$V2.0) , would its reported Log10 CFU/mL blood at 4 h, Mean be below 5 Log10 CFU/mL blood?
Solution: No

Exercise: Given the entry CCCCCCCC(=O)N[C@@H](CCN)C(=O)N[C@H](C(=O)N[C@@H](CCN)C(=O)N[C@H]1CCNC(=O)[C@H]([C@@H](C)O)NC(=O)[C@H](CCN)NC(=O)[C@H](CCN)NC(=O)[C@H]([C@@H](C)O)NC(=O)[C@@H](CCCC)NC(=O)[C@H](CCN)NC1=O)[C@@H](C)O [Lipopeptide F226] (HELM PEPTIDE1{[CCCCCCCC(=O)[*:2]].[Dab].T.[Dab].[Dab].[Dab].[CCCC[C@@H](N[*:1])C(=O)[*:2]].T.[Dab].[Dab].T}$PEPTIDE1,PEPTIDE1,5:R3-11:R2$$$V2.0) , would its reported Log10 CFU/mL blood at 4 h, Mean be below 5 Log10 CFU/mL blood?
Solution: Yes

Exercise: Given the entry CCCCCCCC(=O)N[C@@H](CCN)C(=O)N[C@H](C(=O)N[C@@H](CCN)C(=O)N[C@H]1CCNC(=O)[C@H]([C@@H](C)O)NC(=O)[C@H](CCN)NC(=O)[C@H](CCN)NC(=O)[C@H]([C@@H](C)O)NC(=O)[C@@H](Cc2ccccc2)NC(=O)[C@H](CCN)NC1=O)[C@@H](C)O [Lipopeptide F224] (HELM PEPTIDE1{[CCCCCCCC(=O)[*:2]].[Dab].T.[Dab].[Dab].[Dab].[dF].T.[Dab].[Dab].T}$PEPTIDE1,PEPTIDE1,5:R3-11:R2$$$V2.0) , would its reported Log10 CFU/mL blood at 4 h, Mean be below 5 Log10 CFU/mL blood?
Solution: Yes

Exercise: Given the entry CCCCCCCC(=O)N[C@@H](CCN)C(=O)N[C@H](C(=O)N[C@@H](CCN)C(=O)N[C@H]1CCNC(=O)[C@H]([C@@H](C)O)NC(=O)[C@H](CCN)NC(=O)[C@H](CCN)NC(=O)[C@H](C(C)C)NC(=O)[C@@H](CC(C)C)NC(=O)[C@H](CCN)NC1=O)[C@@H](C)O [Lipopeptide F225] (HELM PEPTIDE1{[CCCCCCCC(=O)[*:2]].[Dab].T.[Dab].[Dab].[Dab].[dL].V.[Dab].[Dab].T}$PEPTIDE1,PEPTIDE1,5:R3-11:R2$$$V2.0) , would its reported Log10 CFU/mL blood at 4 h, Mean be below 5 Log10 CFU/mL blood?
Solution: Yes
